From: a melting point compilation (Tetko et al.; mined from patent text by program, amines drawn as free bases though some values may be those of a salt)

List of melting point values.
Property measured: melting point

| Compound | Property measured | Reported measurement |
| --- | --- | --- |
| O=C(OCc1ccccc1)c1ccc(C#Cc2ccccc2)cc1OCc1ccccc1 | melting point | 98 to 100 °C |
| CCOC(=O)CCCCn1c(C)cn(N=Cc2cccnc2)c1=O | melting point | 74 to 76 °C |
| Cc1ccccc1-c1c(NC(=O)C=Cc2ccc(O)c(O)c2)c(=O)oc2cc3c(cc12)CCC3 | melting point | 295 to 297 °C |
| CCCCCCc1cc(-c2cccs2)n[nH]1 | melting point | 53 to 55 °C |
| CCC(=NO)C(C)(C)NCC(Cn1ccnc1[N+](=O)[O-])ONC(C)(C)C(CC)=NO (stereo not given) | melting point | 143 to 144 °C |

* * *

List of melting point values.
Property measured: melting point

| Molecule | Reported measurement |
| --- | --- |
| CCn1cnc2c(C#N)nc(Cl)cc21 | 138 °C |
| Nc1cc(Cl)nc(S(=O)Cc2ccc3ccccc3c2)n1 (configuration not stated) | 222 to 223 °C |
| COC(=O)c1cc(C(=O)N2CCC(C(N)=O)CC2)c2cc(Cc3ccc(F)cc3)cnc2c1O | 235 to 238 °C |
| Cn1nc(C(F)(F)F)c(C=O)c1O | 116 to 118 °C |
| C#CCOc1cc(Oc2ccc(Cl)c(Cl)c2)ncn1 | 109 °C |
| O=C1C(=O)N(Cc2ccc(O)cc2)c2ccc(S(=O)(=O)N3CCCC3COc3cccnc3)cc21 (configuration not stated) | 127 to 129 °C |
| CCCCCCCCCCCCc1nnn(C(CCCCCCCCCCCC)C(=O)Nc2c(OC)cc(OC)cc2OC)n1 (configuration not stated) | 138 to 140 °C |
| CC(=O)Oc1ccc(CC2CCCN2C)cc1OC(C)=O (configuration not stated) | 44 to 45 °C |
| CNC(=S)C1(c2ccc(C)cn2)CCCS1 (configuration not stated) | 134 °C |
| CNC(=NS(C)(=O)=O)SC | 88 to 91 °C |
| CCN1CCCC1CNC(=O)Cc1ccc(-c2ccc3c(=O)c(C(=O)NC)c(C)n(CC)c3n2)s1 (configuration not stated) | 250 °C |
| CC(C)(O)[C@H]1C[C@@H](C(=O)O)C1(C)C | 98 to 99 °C |
| CC(C)(c1ccc(N)c([N+](=O)[O-])c1)c1ccc(N)c([N+](=O)[O-])c1 | 207 to 210 °C |
| CN1CCC(Oc2ccc(C#N)cc2C(F)(F)F)CC1 | 66 to 69 °C |
| COC(=O)COc1ccc(OC2CCN(c3ccncc3)CC2)cc1 | 74 to 76 °C |
| CCC1C(C)=NN=C(c2ccc(O)c(O)c2)c2cc(O)c(O)cc21 (configuration not stated) | 250 to 251 °C |
| CC1C(c2ccc(Cl)cc2)SC(=O)N1C(=O)NN1CCCCC1 (configuration not stated) | 92 to 93 °C |
| CSCCC(NC(=O)OCc1ccccc1)C(=O)Nc1nncs1 (racemic) | 155 to 159 °C |
| Oc1nn(-c2ccccn2)c(-c2ccccc2)c1Cc1ccccc1 | 115 to 116 °C |
| NNC(=O)C(O)c1cc(F)cc(F)c1 (configuration not stated) | 119 °C |
| Cc1ccc(S(=O)(=O)OC[C@@H]2COc3ccc4scc(Cl)c4c3O2)cc1 | 169 to 170 °C |
| NP(N)(=O)NC(=O)CCc1ccccc1 | > 300 °C |

* * *

| Compound | melting point |
| --- | --- |
| Cc1ccc(C=O)c(OCc2ccc(OCc3nc(-c4ccccc4)oc3C)cc2)n1 | 114 to 115 °C |
| CCCNC(=O)CCCCCn1cnc2c(N)nc3ccccc3c21 | 128 to 130 °C |
| COc1ccc(F)cc1C(C)(C)CC(O)(CN1CC(=O)N(C)c2ccccc21)C(F)(F)F (stereo not given) | 132 to 134 °C |
| CSc1ccc(-c2ccc(C(=O)Nc3ccc4cc(CN5CCCC5)cnc4c3C)c(F)c2)cc1 | 189 to 190 °C |
| Clc1cc(-c2csc(Cc3ccccc3)n2)ccn1 | 104 to 106 °C |
| CCn1nc(-c2ccccc2)c(-c2csc(-c3ccc(OC)cc3)n2)c(Nc2cccnc2)c1=O | 201 to 202 °C |
| CC(=O)Oc1ccc2c(c1)cc(C(=O)O)n2C(C)=O | 142 to 145 °C |
| COC(=O)c1cc(Br)c(C#N)s1 | 102 to 103 °C |
| O=C(COc1ccc(CCNS(=O)(=O)c2ccccc2)cc1)Nc1ccccc1 | 123 °C |
| CCOc1nc(=O)n(C(=O)NC(=O)CCl)s1 | 132 °C |

* * *

| Compound | melting point [°C] |
| --- | --- |
| COc1ccc(CC(N)(C#N)CF)cc1OC (centres undefined) | 76 |
| COc1ccc2c(c1)CC(C(=O)NCCOc1ccc(C(=O)O)cc1)N2S(=O)(=O)c1ccc(-c2ccc(F)cc2F)cc1 (centres undefined) | 91 |
| COC(=O)C=CC=Cc1cc([N+](=O)[O-])ccc1Cl | 132 |
| COc1ccc(S(=O)(=O)C2(C(=O)O)CCN(C3CCCCCCC3)CC2)cc1 | 180 |

* * *

List of melting point values.

| Molecule | melting point |
| --- | --- |
| COC(=O)C(c1ccccc1)C1CCN(c2ccc([N+](=O)[O-])cc2)CC1 (centres undefined) | 124 °C |
| O=S1(=O)N(CCCN2CCN(c3ccc(O)cc3)CC2)c2cccc3c2N1CCC3 | 182 °C |
| O=C1NCC(CN2C(=O)C3(COc4cc5c(cc43)CCO5)c3ccccc32)O1 (centres undefined) | 197 to 198 °C |
| CC(C)(C)c1cc(/C=C/c2n[nH]c(=S)s2)cc(C(C)(C)C)c1O | 248 to 249 °C |
| O=C1c2ccccc2C(=O)N1CCCN(c1ccccc1)c1ccccn1 | 103 to 105 °C |
| CCCNC1=NS(=O)(=O)c2cc(C(=O)O)ccc2N1 | > 310 °C |
| CC(C)(C)OC(=O)N1CCn2c(C#N)c(-c3cccc(F)c3)c(C(=O)O)c2C1 | > 210 °C |
| COC(=O)C(=Cc1ccc(OCCc2nc(-c3ccccc3)oc2C)cc1)C(=O)OC | 104 to 105 °C |
| CCOC(=O)C1=C(NC(=O)Nc2cc(OC(C)C)c(Cl)cc2F)CCC1 | 166 to 169 °C |

* * *

List of melting point values.

| Compound | melting point |
| --- | --- |
| COc1ccc(-c2cc(COc3cccc4cc(NS(=O)(=O)C(F)(F)F)ccc34)ccc2F)cc1 | 132 to 133 °C |
| Cc1cc(C(=O)c2[nH]c3cc(Cl)ccc3c2NC(=O)CC(C)C)ccc1Cl | 202 to 203 °C |
| CCCCCCC1C(=O)NC(C(=O)SCCC(=O)OC)(C(O)C2C=CCCC2)C1(C)O (centres undefined) | 64 °C |
| CC(C)(C(=O)O)C(O)c1ccnc(-c2nc(=O)c3ccccc3s2)c1 (centres undefined) | 235 to 236 °C |
| C=CCc1cc(-c2ccc(F)cc2)cc(C(=O)O)c1O | 170 to 172 °C |
| FC(F)(F)c1ccc(-c2cc(Oc3ccc4cccnc4c3)ncn2)c(NCC2CCCCC2)c1 | 137 to 138 °C |
| Cc1cn(C2(C(=O)N(C)C)CC2)nc1-c1ccccc1 | 52 to 55 °C |
| CC(C)(C)c1cccc(S(=O)(=O)n2c(Cc3cccc(C(=O)O)c3)cc3cc(C(F)(F)F)ccc32)c1 | 146 °C |
| CC(=O)OCCCN1CCC(CNC(=O)[C@@H]2CCCN2S(=O)(=O)c2ccc(Cl)c(COc3cccc4c(-n5cncn5)cc(C)nc34)c2Cl)CC1 | 120 °C |
| Clc1cc(Cl)c2[nH]c(-c3ccccc3)cc2c1 | 136 to 138 °C |
| CCN1CCc2ccc(Nc3ncc(Cl)c(Nc4ccccc4C(=O)NC)n3)cc2CC1 | 201 °C |
| COCC(=O)Nc1ccc2ncnc(Nc3cccc(I)c3)c2c1 | 159 to 163 °C |
| Cc1nn(C)c(C)c1NC(=S)n1ccc2cc(Cl)ccc21 | 165 to 166 °C |
| CCOC(=O)C(=O)Nc1ccccc1C(=O)Nc1nnn[nH]1 | 231 to 232 °C |
| CC(C)OCc1nc(N)c2nccnc2n1 | 139 to 141 °C |
| CCOc1nn(-c2ccc(C(F)(F)F)cn2)cc1CCOc1cc(CC(=O)O)n(C)n1 | 156 to 158 °C |
| NC(=O)c1cccc(OCc2ccc(F)cc2)c1 | 161 to 162 °C |
| O=C(c1ccc(-c2ccn(C(=O)Cc3ccc(Cl)cc3Cl)n2)cc1)N1Cc2cccn2Cc2ccccc21 | 130 to 140 °C |
| COC(=O)c1cn(-c2ccc(F)cc2)c(C=Cc2cccnc2)cc1=O | 201 to 204 °C |
